# assayed-target: recombinant full-length HSET (Homo sapiens)
# Construct: 5 nM full-length human N-terminal His-tag HSET; His-tag (N)
# procedure-summary: ADP-Glo HSET assay (3 μM ATP), microtubule-stimulated ATPase
# Format: biochemical
# test-parameters: LLE = −Log(IC50 [M]) – cLogP (MoKa) (Table 2)
// boundary case: LLE equal to 4 maps to class 0; strictly smaller maps to class 1

Example entries begin here.
CCCOC(=O)c1sc(NC(=O)CCNC(=O)c2cccc(-c3noc(C)n3)c2)nc1C [Compound 32]; class 0
CCOC(=O)c1sc(NC(=O)C[C@@H](C)NC(=O)c2cccc(-c3noc(C)n3)c2)nc1C [Compound 31]; class 1
CCOC(=O)c1sc(NC(=O)CCNC(=O)c2cccc(-c3noc(C)n3)c2)cc1C [Compound 26]; class 1
CCOC(=O)c1sc(N(C)C(=O)CCNC(=O)c2cccc(-c3noc(C)n3)c2)nc1C [Compound 23]; class 0
CCCOC(=O)c1cc(NC(=O)CCNC(=O)c2cccc(-c3noc(C)n3)c2)nn1C [Compound 28]; class 0

Q: LLE under 4? Item: CCOC(=O)c1ccc(NC(=O)CCNC(=O)c2cccc(-c3noc(C)n3)c2)nc1C [Compound 27]
A: class 1

Q: hey, is LLE for CCOC(=O)c1sc(NC(=O)CCN(C)C(=O)c2cccc(-c3noc(C)n3)c2)nc1C [Compound 24] lower than 4 or not?
A: class 1

----------
# assayed-target: recombinant full-length HSET (Homo sapiens, UniProt Q9BW19)
# Construct: 5 nM full-length human N-terminal His-tag HSET; His-tag (N)
# procedure-summary: ADP-Glo HSET assay (3 μM ATP), microtubule-stimulated ATPase
# Format: biochemical
# test-parameters: preformed microtubules, 3 μM ATP; mean (±SD) n ≥ 3 (37 n = 2, 38 single determination) (Table 3); read-out: HSET ADP-Glo IC50
Catalogue of molecules with associated pIC50
Please note pIC50 is a logarithmic value: minus log10 of concentration in mol/L. Answer with that number alone.

# count of solved cases: 2
CCCOC(=O)c1sc(NC(=O)C[C@H](CCCN(C)C)NC(=O)c2cccc(-c3noc(C)n3)c2)nc1C; 7.96
CCCOC(=O)c1sc(NC(=O)C[C@H](CCCN)NC(=O)c2cccc(-c3noc(C)n3)c2)nc1C; 7.89

Q: Please give the measured pIC50 for this molecule: `CCCOC(=O)c1sc(NC(=O)C[C@H](CCCNC)NC(=O)c2cccc(-c3noc(C)n3)c2)nc1C`
A: 7.72

----------
# assayed-target: recombinant full-length HSET (Homo sapiens, UniProt Q9BW19)
# Construct: 5 nM full-length human N-terminal His-tag HSET; His-tag (N)
# Sequence (Q9BW19 1-673): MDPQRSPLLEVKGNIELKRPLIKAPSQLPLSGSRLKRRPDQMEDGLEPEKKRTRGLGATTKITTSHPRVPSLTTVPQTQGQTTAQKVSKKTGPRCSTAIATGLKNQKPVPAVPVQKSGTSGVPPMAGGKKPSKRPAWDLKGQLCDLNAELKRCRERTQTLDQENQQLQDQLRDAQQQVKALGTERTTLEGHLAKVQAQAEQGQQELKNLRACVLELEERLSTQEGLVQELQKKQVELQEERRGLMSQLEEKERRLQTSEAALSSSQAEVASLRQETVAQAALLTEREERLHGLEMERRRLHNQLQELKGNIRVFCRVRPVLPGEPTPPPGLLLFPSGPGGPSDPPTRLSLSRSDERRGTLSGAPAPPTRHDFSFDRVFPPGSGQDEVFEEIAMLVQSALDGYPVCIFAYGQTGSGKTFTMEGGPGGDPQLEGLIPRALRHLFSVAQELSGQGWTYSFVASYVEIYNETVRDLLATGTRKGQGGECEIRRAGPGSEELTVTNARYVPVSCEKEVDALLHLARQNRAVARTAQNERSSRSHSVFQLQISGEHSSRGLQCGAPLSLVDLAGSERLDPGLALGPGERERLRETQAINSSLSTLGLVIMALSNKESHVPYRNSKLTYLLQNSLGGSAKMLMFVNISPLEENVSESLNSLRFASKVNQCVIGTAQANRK
# procedure-summary: ADP-Glo HSET assay (3 μM ATP), microtubule-stimulated ATPase
# Type: biochemical
# test-parameters: preformed microtubules, 3 μM ATP; mean (±SD) n ≥ 3; >200 from a single determination (Table 1); read-out: HSET ADP-Glo IC50
quantity-kind: IC50 (nM)
Express the result in nM but write the number alone.

Please review the following examples before continuing.
CCOC(=O)c1sc(NC(=O)CCNC(=O)c2ccc(C)cc2)nc1C; 4730
CCOC(=O)c1sc(NC(=O)CCNC(=O)c2cccc(-c3noc(C)n3)c2)nc1C; 63

Q: Which IC50 value belongs to `CCOC(=O)c1sc(NC(=O)CCNC(=O)c2cccc(-c3ccccc3)c2)nc1C` ?
A: 2440

Q: Please look up its IC50: `CCOC(=O)c1sc(NC(=O)CCNC(=O)c2cccc(-c3nnc(C)o3)c2)nc1C`
A: 260

----------
# assayed-target: recombinant full-length HSET (Homo sapiens)
# Construct: 5 nM full-length human N-terminal His-tag HSET; His-tag (N)
# procedure-summary: ADP-Glo HSET assay (3 μM ATP), microtubule-stimulated ATPase
# Type: biochemical
# test-parameters: preformed microtubules, 3 μM ATP; mean (±SD) n ≥ 3; >200 from a single determination (Table 2); read-out: HSET ADP-Glo IC50
Quick reference: IC50 of the listed items.

CCOC(=O)c1nc(NC(=O)CCNC(=O)c2cccc(-c3noc(C)n3)c2)cn1C [Compound 29]; > 200 µM

Q: # query: IC50 of entry Cc1csc(NC(=O)CCNC(=O)c2cccc(-c3noc(C)n3)c2)n1 [Compound 20]
A: > 200 µM

Q: If you can, please state the reported IC50 value of CCOC(=O)c1sc(NC(=O)CCCNC(=O)c2cccc(-c3noc(C)n3)c2)nc1C [Compound 22] .
A: > 200 µM

----------
# assayed-target: recombinant full-length HSET (Homo sapiens, UniProt Q9BW19)
# Construct: 5 nM full-length human N-terminal His-tag HSET; His-tag (N)
# Sequence (Q9BW19 1-673): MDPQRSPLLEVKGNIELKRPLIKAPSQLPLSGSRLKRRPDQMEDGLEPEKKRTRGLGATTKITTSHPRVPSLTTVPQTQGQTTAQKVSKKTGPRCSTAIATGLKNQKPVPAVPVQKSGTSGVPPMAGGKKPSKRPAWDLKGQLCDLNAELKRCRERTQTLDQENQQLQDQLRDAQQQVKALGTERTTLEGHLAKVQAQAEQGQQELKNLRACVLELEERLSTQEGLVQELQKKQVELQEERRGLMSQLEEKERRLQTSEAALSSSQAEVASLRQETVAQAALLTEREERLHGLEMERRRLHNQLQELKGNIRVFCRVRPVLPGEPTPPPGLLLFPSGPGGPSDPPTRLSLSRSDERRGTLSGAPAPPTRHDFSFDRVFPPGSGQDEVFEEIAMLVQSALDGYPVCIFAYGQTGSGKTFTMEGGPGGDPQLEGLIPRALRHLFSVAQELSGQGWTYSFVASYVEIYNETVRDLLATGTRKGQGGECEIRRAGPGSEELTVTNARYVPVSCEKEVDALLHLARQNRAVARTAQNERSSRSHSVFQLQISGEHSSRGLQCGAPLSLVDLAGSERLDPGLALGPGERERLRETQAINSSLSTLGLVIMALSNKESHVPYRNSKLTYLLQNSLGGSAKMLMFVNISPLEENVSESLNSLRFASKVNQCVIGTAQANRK
# procedure-summary: ADP-Glo HSET assay (3 μM ATP), microtubule-stimulated ATPase
# Format: biochemical
# test-parameters: preformed microtubules, 3 μM ATP; mean (±SD) n ≥ 3; >200 from a single determination (Table 1); read-out: HSET ADP-Glo IC50
IC50 by entry:
Answer format: numeric, nM implied, no suffix.

Examples with their reported IC50 follow.
CCOC(=O)c1sc(NC(=O)CCNC(=O)c2cccc(CC)c2)nc1C; 2320
CCOC(=O)c1sc(NC(=O)CCNC(=O)c2cccc(-c3nnn(C)n3)c2)nc1C; 27

Q: Hello, I am looking for reported IC50 with recombinant full-length HSET (Homo sapiens, UniProt Q9BW19) for `CCOC(=O)c1sc(NC(=O)CCNC(=O)c2cccc(C)c2)nc1C` . Could you help?
A: 2730
